Target: UniProt Q15562
Sequence (Q15562 whole entry): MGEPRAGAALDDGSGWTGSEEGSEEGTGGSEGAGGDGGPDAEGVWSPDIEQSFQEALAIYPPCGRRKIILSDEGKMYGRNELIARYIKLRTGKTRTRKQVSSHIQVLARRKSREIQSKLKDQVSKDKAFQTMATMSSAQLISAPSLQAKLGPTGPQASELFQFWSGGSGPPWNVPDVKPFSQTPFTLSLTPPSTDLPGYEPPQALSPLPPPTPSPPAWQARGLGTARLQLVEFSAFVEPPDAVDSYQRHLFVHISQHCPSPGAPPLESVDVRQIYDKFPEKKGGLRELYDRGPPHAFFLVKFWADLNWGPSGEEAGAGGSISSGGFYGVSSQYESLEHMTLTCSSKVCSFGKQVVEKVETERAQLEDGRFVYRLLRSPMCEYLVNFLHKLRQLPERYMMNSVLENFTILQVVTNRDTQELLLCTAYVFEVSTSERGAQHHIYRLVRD
Test: In vitro palmitoylation (TEAD2 autopalmitoylation, streptavidin blot)
Format: biochemical
Conditions: compound at 10 μM; Table 2
Please respond with reported inhibition at 10 µM for every item in the list.
Respond with the bare value in %.

Fill in: inhibition at 10 µM of O=C(O)c1ccccc1C(=O)Nc1cccc(Nc2ccc(C34CC5CC(CC(C5)C3)C4)cc2)c1 is ___ 97

Fill in: inhibition at 10 µM of CN(c1ccc(Nc2ccc(C34CC5CC(CC(C5)C3)C4)cc2Cl)cc1)c1ncccc1C(=O)O is ___ 96

Fill in: inhibition at 10 µM of CN(c1ccc(N(C)c2ccccc2C(=O)O)cc1)c1ccc(C23CC4CC(C)(CC(C)(C4)C2)C3)cc1 is ___ 100

Fill in: inhibition at 10 µM of O=C(O)c1cc(Nc2ccc(Nc3ccc(C45CC6CC(CC(C6)C4)C5)cc3Cl)cc2)ccn1 is ___ 9

Fill in: inhibition at 10 µM of O=C(O)c1ccccc1Nc1cc(F)cc(Nc2ccc(C34CC5CC(CC(C5)C3)C4)cc2)c1 is ___ 91

Fill in: inhibition at 10 µM of O=C(O)c1ccccc1Nc1ccc(Nc2ccc(C34CC5CC(CC(C5)C3)C4)cc2)cc1 is ___ 56

Fill in: inhibition at 10 µM of CCCCN(CCCC)C(=O)c1ccc(Nc2ccc(Nc3ncccc3C(=O)O)cc2)cc1 is ___ 46

Fill in: inhibition at 10 µM of CN(c1ccc(Oc2ccc(C34CC5CC(CC(C5)C3)C4)cc2Cl)cc1)c1ccccc1C(=O)O is ___ 97

Fill in: inhibition at 10 µM of O=C(O)c1cncc(Nc2cc(C(F)(F)F)cc3[nH]c4ccc(C56CC7CC(CC(C7)C5)C6)cc4c23)c1 is ___ 101

Fill in: inhibition at 10 µM of O=C(O)c1ccccc1Nc1cccc(S(=O)(=O)Nc2ccc(C34CC5CC(CC(C5)C3)C4)cc2)c1 is ___ 99

Fill in: inhibition at 10 µM of O=C(O)c1cccnc1Nc1ccc(C23CC4CC(CC(C4)C2)C3)cc1Cl is ___ 100

Fill in: inhibition at 10 µM of O=C(O)c1ccccc1Nc1cnc(Oc2ccc(C3CCCCC3)cc2Cl)cn1 is ___ 79

Fill in: inhibition at 10 µM of CCCCN(c1ccccc1)c1ccc(Nc2ccc(Nc3ncccc3C(=O)O)cc2)c(Cl)c1 is ___ 83

Fill in: inhibition at 10 µM of CN(c1ccc(Nc2cccc(C(=O)O)n2)cc1)c1ccc(C23CC4CC(CC(C4)C2)C3)cc1 is ___ 86

Fill in: inhibition at 10 µM of Cn1c(-c2ccc(Nc3ccc(C45CC6CC(CC(C6)C4)C5)cc3)cc2)nc2c(C(=O)O)cccc21 is ___ 6

Fill in: inhibition at 10 µM of O=C1CCc2ccccc2N1c1ccc(Nc2ccc(C34CC5CC(CC(C5)C3)C4)cc2)cc1 is ___ 12
